The origin of these recorded values is patent US7018989B2.

tested on: HIV-1; test: microbe, parasite or virus in culture; conditions: read-out: HIV1 CEM: EC50 for inhibition of HIV-1 in CEM cells; Table 6; mean of two or more repeat experiments
Structures can show the parent of a compound that is named as a salt.
# Lookup of reported EC50 keyed by entry
Write it as a number; the unit nM goes unstated.

// known answers, use as guide
# Molecule, Measure unit, Reported result
rows = [
    ("COC(=O)C(NP(=O)(OCC1C=CC(n2cc(C)c(=O)[nH]c2=O)O1)OCC(Cl)(Cl)Cl)C(C)C (stereo not shown) [Compound 322]", "nM", 29000),
    ("Cc1cn(C2C=CC(COP(=O)(O)NC(CC(C)C)C(=O)O)O2)c(=O)[nH]c1=O (stereo not shown) [Compound 1192]", "nM", 1400),
    ("Cc1cn(C2C=CC(COP(=O)(O)NCCC(=O)O)O2)c(=O)[nH]c1=O (stereo not shown) [Compound 1216, phosphate ammonium salt]", "nM", 700),
]

(Q) Entry COC(=O)C(C)(C)NP(=O)(OCC1C=CC(n2cc(C)c(=O)[nH]c2=O)O1)Oc1ccccc1 (stereo not shown) [Compound 1200] has what EC50?
(A) 120

(Q) Item: CCc1ccc(OP(=O)(N[C@@H](C)C(=O)OC)OCC2C=CC(n3cc(C)c(=O)[nH]c3=O)O2)cc1 (stereo partly shown) [Compound 323]
(A) 70

---

# Lookup of reported pEC50 keyed by entry
test system: HIV-1; test: microbe, parasite or virus in culture; conditions: read-out: HIV1 CEM: EC50 for inhibition of HIV-1 in CEM cells; Table 6; mean of two or more repeat experiments
// pEC50: -log10(molar conc.)

(Q) Entry COC(=O)COP(=O)(OCC1C=CC(n2cc(C)c(=O)[nH]c2=O)O1)Oc1ccccc1 (stereo not shown) has what pEC50?
(A) 4.56

(Q) Item: COC(=O)[C@@H](C)NP(=O)(OCC1C=CC(n2cc(C)c(=O)[nH]c2=O)O1)Oc1ccccc1 (stereo partly shown)
(A) 5.52

(Q) Item: COC(=O)C(C)NP(=O)(O)OCC1C=CC(n2cc(C)c(=O)[nH]c2=O)O1 (stereo not shown)
(A) 5.70

(Q) Item: COC(=O)C(OP(=O)(OCC1C=CC(n2cc(C)c(=O)[nH]c2=O)O1)Oc1ccccc1)c1ccccc1 (stereo not shown)
(A) 5.77

(Q) Item: Cc1cn([C@H]2C=C[C@@H](COP(=O)(O)NCC(=O)O)O2)c(=O)[nH]c1=O
(A) 5.70

---

# Lookup of reported CC50 keyed by entry
system: CEM cells; test: Toxicity to CEM cells; format: cell-based, human; settings: Table 6; mean of two or more repeat experiments

(Q) Entry Cc1cn(C2C=CC(COP(=O)(O)Oc3ccccc3)O2)c(=O)[nH]c1=O (centres unmarked) [Compound 853] has what CC50?
(A) 153 µM

(Q) Item: COP(=O)(NC(C)C(=O)OCc1ccccc1)OCC1C=CC(n2cc(C)c(=O)[nH]c2=O)O1 (centres unmarked) [Compound 1135]
(A) > 250 µM

(Q) Item: COC(=O)C(CC(C)C)NP(=O)(OCC1C=CC(n2cc(C)c(=O)[nH]c2=O)O1)Oc1ccccc1 (centres unmarked) [Compound 864]
(A) ≥ 250 µM
